Values from PubChem BioAssay (NCI)

tested on: CAKI-1 renal; experiment: NCI-60 one-dose screen, 48 h; conditions: 10 µM unless noted
The panel holds about 83,000 compounds, 20% with a hit somewhere; the sample as a whole holds those more often. Calls of active or inactive are those of the source. How the source made its calls: active means growth percent below 10; inactive means the rest.
The reply should name one outcome from Yes = active, No = inactive

I would be grateful if you could indicate the recorded call for Cc1ccc2nc(Cl)c(Cn3nnnc3SCc3ccccc3)cc2c1 .
No

I would be grateful if you could indicate the recorded call for COc1ccc(-c2cc(-c3ccc(OC)cc3)nc(NCCCNc3ccnc4cc(Cl)ccc34)n2)cc1 .
No

I would be grateful if you could indicate the recorded call for COc1cc(N2C(=O)[C@H](c3ccccc3)C2c2ccc(SC)cc2)cc(OC)c1OC (stereo partly specified) .
No

I would be grateful if you could indicate the recorded call for CCn1cc(CNc2ccc(C(=O)Nc3cc4cc(OC)c(OC)cc4c(C)n3)cc2)c(C)n1 .
No

I would be grateful if you could indicate the recorded call for COc1ccc(C2C(C#N)=C(N)Oc3c2sc2c(Br)cccc32)cc1 (stereo unspecified) .
No

I would be grateful if you could indicate the recorded call for Cn1cc(-c2ccc3cc(-c4ccc(CC(=O)Nc5cc(C(C)(C)C)on5)cc4)cnc3c2)cn1 .
No

I would be grateful if you could indicate the recorded call for N=C(N)c1ccc(-c2ccc(-c3ccc(F)cc3)s2)s1 .
Yes

I would be grateful if you could indicate the recorded call for CCc1ccc(CCC(=O)Nc2ncc(Cc3ccc(Cl)cc3)s2)o1 .
No

I would be grateful if you could indicate the recorded call for Cc1cc2nc3c4ccccc4n(CCN(C)C)c3nc2cc1C .
Yes

I would be grateful if you could indicate the recorded call for CC1(C)CC[C@]2(C(=O)N3CCOCC3)CC[C@]3(C)C(=CC[C@@H]4[C@@]5(C)C/C(=C/c6ccncc6)C(=O)C(C)(C)[C@@H]5CC[C@]43C)[C@@H]2C1 .
No

I would be grateful if you could indicate the recorded call for COc1ccc(NC(=O)c2sc3nc4c(cc3c2N)CCCC4)cc1 .
No

I would be grateful if you could indicate the recorded call for CCOC(=O)c1c(NC(=O)c2ccc(OC)cc2)sc2c(CN(C)C)c(O)ccc12 .
No

I would be grateful if you could indicate the recorded call for CCOC(=O)c1c(NC(=O)CSc2n[nH]c3nc4ccccc4n23)sc(CC)c1C .
No

I would be grateful if you could indicate the recorded call for O=C1NC(=O)c2c1c1c3ccccc3[nH]c1c1oc3ccc(F)cc3c21 .
No

I would be grateful if you could indicate the recorded call for CCOC(=O)Nc1nc2ccc(SCC(C)C)cc2s1 .
No

I would be grateful if you could indicate the recorded call for COc1ccc2nc3ccccc3c(NCc3ccc(F)cc3)c2c1 .
Yes

I would be grateful if you could indicate the recorded call for CN1CCN(Cc2ccc(NC(=O)c3cncc(C#Cc4cncc5[nH]ncc45)c3)cc2C(F)(F)F)CC1 .
Yes

I would be grateful if you could indicate the recorded call for CC1=C(C(=O)n2c3ccccc3c3ccccc32)C(c2cccc([N+](=O)[O-])c2)C(C(=O)n2c3ccccc3c3ccccc32)=C(C)N1 .
No

I would be grateful if you could indicate the recorded call for C[C@H]1[C@H](C)CC[C@]2(C(=O)O)CC[C@]3(C)C(=CC[C@@H]4[C@@]5(C)C[C@@H](Cc6cn([C@@H]7O[C@H](CO)[C@@H](O)[C@H](O)[C@H]7O)nn6)[C@H](O)C(C)(C)[C@@H]5CC[C@]43C)[C@H]12 .
No

I would be grateful if you could indicate the recorded call for COc1cc(-c2nc3ccc(C)cc3[nH]2)ccc1OCC(=O)N=Nc1c(O)[nH]c2ccc(Cl)cc12 .
Yes

I would be grateful if you could indicate the recorded call for O=C(CN1C(=O)/C(=C/c2ccco2)SC1=S)NCCc1c[nH]c2ccc(F)cc12 .
No

I would be grateful if you could indicate the recorded call for COc1cc2cc(Oc3ccc(NC(=O)Nc4ccccc4)cc3)c(C)nc2cc1OCCN1CCCCC1 .
No

I would be grateful if you could indicate the recorded call for O=C(Cn1nnc([N+](=O)[O-])n1)c1ccccc1 .
No

I would be grateful if you could indicate the recorded call for COc1cc(/C=C2\C(=O)N(c3c(Cl)cccc3Cl)c3ccccc32)cc(OC)c1OCCCCCCn1c2ccccc2c(=O)c2ccccc21 .
No

I would be grateful if you could indicate the recorded call for CCN1C(=O)N(CC)C2C1NN=c1s/c(=C\c3cc4ccccc4[nH]3)c(=O)n12 (stereo unspecified) .
Yes

I would be grateful if you could indicate the recorded call for COc1ccc(-c2ccc(-c3ccc(C(=N)N)cn3)s2)cc1 .
No

I would be grateful if you could indicate the recorded call for COC(=O)c1ccc2c(c1)c1c(C)c3ccncc3c(C)c1n2C .
No

I would be grateful if you could indicate the recorded call for C[C@@H]1CC[C@@]2(OC1)O[C@H]1C[C@H]3[C@@H]4CC=C5C[C@@H](O[C@@H]6O[C@H](CO)[C@@H](O[C@@H]7O[C@@H](CO)[C@H](O)[C@H]7O)[C@H](O)[C@H]6O[C@@H]6O[C@@H](C)[C@H](O)[C@@H](O)[C@H]6O)CC[C@]5(C)[C@H]4CC[C@]3(C)[C@H]1[C@@H]2C .
Yes

I would be grateful if you could indicate the recorded call for C=CCOC(=O)C1=C(C)NC(=O)NC1c1c(Cl)n(C)c2ccccc12 (stereo unspecified) .
No

I would be grateful if you could indicate the recorded call for C/C(=N\Nc1nc(C)cs1)c1cc2ccccc2o1 .
No

I would be grateful if you could indicate the recorded call for O=C(CCC(=O)c1nc2ncccc2[nH]1)NN1C(=O)CSC1c1ccc(Cl)cc1 (stereo unspecified) .
No

I would be grateful if you could indicate the recorded call for COc1cc2c3c(c1O)-c1ccccc1[C@@H]1OC(=O)N(CC2)[C@H]31 .
No

I would be grateful if you could indicate the recorded call for COc1cc(C(=O)c2c(N)ncn2-c2ccccc2)cc(OC)c1OC .
No

I would be grateful if you could indicate the recorded call for C=CCn1c(SCC(=O)Nc2ccc(C(=O)/C=C/c3cc(OC)c(OC)c(OC)c3)cc2)nnc1-c1cc(-c2ccc(OC)cc2)nc2ccccc12 .
No

I would be grateful if you could indicate the recorded call for N#Cc1c(N2CCOCC2)nc(=S)[nH]c1-c1ccccc1 .
No

I would be grateful if you could indicate the recorded call for Oc1c(CN2CCCC2)cc(COCc2ccccc2)c2cccnc12 .
No

---

test system: NCI-H226 lung; experiment: NCI-60 one-dose screen, 48 h (100 = growth as untreated, 0 = no growth, -100 = all killed); settings: 10 µM unless noted
Compounds without any hit were thinned out: in the full panel of roughly 83,000, 20% have a hit.
Decision: growth beneath 90% gives criterion met; growth meeting or exceeding 90% gives criterion not met.

Item CCN1C(=O)N(CC)C2C1NN=c1s/c(=C\c3cc4ccccc4[nH]3)c(=O)n12 (stereo not drawn) : growth beneath 90%, strictly?
criterion met

Item COc1ccc(C2=NN(C(C)=O)C(c3ccc(Oc4ccnc5cc(Cl)ccc45)c(OC)c3)C2)cc1 (stereo not drawn) : growth beneath 90%, strictly?
criterion met

Item CC(C)CCC[C@@H](C)C1CCC2C3CCC4=C/C(=N/OCCN(C)C)CC[C@]4(C)C3CC[C@@]21C (stereo partly drawn) : growth beneath 90%, strictly?
criterion not met

Item COc1ccc(C(O)c2cc3c(N)c(C(=O)Nc4cccc(Cl)c4)sc3nc2C)cc1 (stereo not drawn) : growth beneath 90%, strictly?
criterion met

Item S=c1ssnc1-c1cccs1 : growth beneath 90%, strictly?
criterion not met

Item CCOC(=O)c1c(C)nn(CC(O)c2ccccc2)c1NC(=O)Nc1cccc(F)c1 (stereo not drawn) : growth beneath 90%, strictly?
criterion met

Item O=C(NCc1ccccc1O)c1cccc2ccccc12 : growth beneath 90%, strictly?
criterion met

Item O=C(N/N=C/c1ccc(Cl)cc1Cl)c1ccc2nc(-c3ccc(Cl)cc3)[nH]c2c1 : growth beneath 90%, strictly?
criterion not met

Item CC(/C=C1\SC(=S)N(CC(=O)NC(Cc2c[nH]c3ccccc23)C(=O)O)C1=O)=C\c1ccccc1 (stereo not drawn) : growth beneath 90%, strictly?
criterion not met

Item CCn1cc(CNc2ccc(C(=O)Nc3cc4cc(OC)c(OC)cc4c(C)n3)cc2)c(C)n1 : growth beneath 90%, strictly?
criterion met

Item C[C@H]1[C@H](C)CC[C@]2(C(=O)O)CC[C@]3(C)C(=CC[C@@H]4[C@@]5(C)C[C@@H](Cc6cn([C@@H]7O[C@H](CO)[C@@H](O)[C@H](O)[C@H]7O)nn6)[C@H](O)C(C)(C)[C@@H]5CC[C@]43C)[C@H]12 : growth beneath 90%, strictly?
criterion not met

Item COc1ccc(C2C(C#N)=C(N)Oc3c2sc2c(Br)cccc32)cc1 (stereo not drawn) : growth beneath 90%, strictly?
criterion met

Item CS(=O)(=O)Cc1cnc(C2OCCO2)s1 : growth beneath 90%, strictly?
criterion not met

Item CCN(C(=O)N1CCN(c2cc3c(cc2F)c(=O)c(C(=O)O)cn3C2CC2)CC1)c1nc(-c2ccc(C)cc2)cs1 : growth beneath 90%, strictly?
criterion met

Item Cc1c2cc[nH]c(=O)c2c(C)c2c1[nH]c1ccc(OC(=O)c3ccccc3)cc12 : growth beneath 90%, strictly?
criterion met

Item CCN(CC)S(=O)(=O)c1ccc(S(=O)(=O)N2CCC[C@@H](C(=O)N3CCN(C(=O)OC(C)(C)C)CC3)C2)cc1 : growth beneath 90%, strictly?
criterion met

Item O=C1NC(=C(Cl)Cl)/C(=N/S(=O)(=O)NCCc2c[nH]c3ccccc23)N1 : growth beneath 90%, strictly?
criterion met
